Target: AmaEcR (GAL4-EcR DEF with VP16-RXR-USP chimera) (Amblyomma americanum, UniProt O44338)
Sequence (O44338 255-570, change not shown): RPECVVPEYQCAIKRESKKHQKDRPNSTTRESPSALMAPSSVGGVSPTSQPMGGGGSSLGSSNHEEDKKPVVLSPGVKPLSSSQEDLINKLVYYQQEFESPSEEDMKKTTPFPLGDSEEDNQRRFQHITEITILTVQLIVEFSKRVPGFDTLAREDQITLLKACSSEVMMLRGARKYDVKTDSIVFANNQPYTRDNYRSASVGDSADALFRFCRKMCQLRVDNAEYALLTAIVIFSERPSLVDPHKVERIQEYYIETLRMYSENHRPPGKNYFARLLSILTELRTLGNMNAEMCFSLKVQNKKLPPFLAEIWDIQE
Sequence (P28702 whole entry partner, the tested form may be a part): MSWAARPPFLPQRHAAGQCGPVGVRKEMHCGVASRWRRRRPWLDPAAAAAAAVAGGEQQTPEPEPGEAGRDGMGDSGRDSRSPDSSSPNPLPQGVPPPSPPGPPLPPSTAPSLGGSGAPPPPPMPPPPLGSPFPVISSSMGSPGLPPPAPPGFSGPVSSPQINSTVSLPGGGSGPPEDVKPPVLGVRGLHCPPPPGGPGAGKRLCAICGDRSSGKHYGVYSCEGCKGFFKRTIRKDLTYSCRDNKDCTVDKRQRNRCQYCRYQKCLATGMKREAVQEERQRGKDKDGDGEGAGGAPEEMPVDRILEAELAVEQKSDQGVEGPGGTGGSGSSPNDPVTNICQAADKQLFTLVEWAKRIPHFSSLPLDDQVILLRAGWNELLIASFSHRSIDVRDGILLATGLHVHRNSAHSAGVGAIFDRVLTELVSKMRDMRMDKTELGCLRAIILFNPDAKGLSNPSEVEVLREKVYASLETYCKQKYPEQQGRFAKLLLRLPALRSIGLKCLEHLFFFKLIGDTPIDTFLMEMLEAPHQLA
Experiment: Two-hybrid gene switch assay, luciferase reporter, AmaEcR, mouse NIH3T3 cells
Settings: EC50, FIG. 14A/14B, GAL4-EcR(DEF) with VP16-RXR-USP chimera
pEC50: −log10 of the molar value.
# pEC50 annotations

Recorded pEC50, per entry:
- COMPOUND: "CC(C)CC[C@@H](O)[C@](C)(O)[C@H]1CC[C@@]2(O)C3=CC(=O)[C@]4(O)C[C@@H](O)[C@@H](O)C[C@]4(C)[C@H]3[C@H](O)C[C@]12C [Mur A, muristerone A, reference compound]"
  pEC50: 6.89
- COMPOUND: "CC(C)(O)CC[C@H]1OC(C)(C)O[C@]1(C)[C@H]1CC[C@@]2(O)C3=CC(=O)[C@@H]4C[C@@H](O)[C@@H](O)C[C@]4(C)[C@H]3CC[C@]12C [20-hydroxyecdysone-20,22-acetonide]"
  pEC50: "~4.70"
- COMPOUND: "CCC(=O)OC1CC2(C)C(C(C)(O)C(O)CCC(C)(C)O)CCC2(O)C2=CC(=O)C3CC(O)C(O)CC3(C)C21 (centres unmarked) [turkesterone-11 a -propionate]"
  pEC50: "~5.00"
- COMPOUND: "CC(C)(O)CC[C@@H](O)[C@](C)(O)[C@H]1CC[C@@]2(O)C3=CC(=O)[C@@H]4C[C@@H](O)[C@@H](O)C[C@]4(C)[C@H]3[C@H](O)C[C@]12C [turkesterone]"
  pEC50: "~5.00"

Field: next compound
Memo: C[C@H](CO)CC[C@@H](O)[C@](C)(O)[C@H]1CC[C@@]2(O)C3=CC(=O)[C@@H]4C[C@@H](O)[C@@H](O)C[C@]4(C)[C@H]3CC[C@]12C [(25S)-inokosterone] , reported pEC50: ~5.48
